biological target: Neuronal acetylcholine receptor subunit alpha-7 (Homo sapiens, UniProt P36544); assay: Partial agonist activity at human alpha7 nAChR expressed in Xenopus laevis oocytes assessed as increase in net charge at 30 uM at -60 mV holding potential treated for 12 secs followed by compound washout for 181 secs by whole cell two electrode voltage-clamp assay relative to ACh; format: cell-based
Sequence (P36544 whole entry): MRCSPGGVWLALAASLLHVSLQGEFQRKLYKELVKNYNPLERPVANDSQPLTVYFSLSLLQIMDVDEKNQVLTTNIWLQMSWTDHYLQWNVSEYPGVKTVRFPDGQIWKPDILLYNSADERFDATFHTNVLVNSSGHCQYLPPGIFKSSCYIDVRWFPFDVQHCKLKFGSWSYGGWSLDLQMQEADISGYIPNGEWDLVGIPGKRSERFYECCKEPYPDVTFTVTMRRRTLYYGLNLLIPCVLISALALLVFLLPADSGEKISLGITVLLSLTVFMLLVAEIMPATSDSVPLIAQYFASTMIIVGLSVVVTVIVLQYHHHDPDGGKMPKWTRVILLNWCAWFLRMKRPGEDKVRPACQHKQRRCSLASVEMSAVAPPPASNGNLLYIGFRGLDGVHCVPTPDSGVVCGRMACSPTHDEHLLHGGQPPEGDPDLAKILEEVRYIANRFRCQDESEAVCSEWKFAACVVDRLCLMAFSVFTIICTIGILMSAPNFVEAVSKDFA
The reader will find reported fold change (FC) values listed item by item below.
Enter a number only.

# example entries with known answers
{"Compound": "C[N+]12CCC(CC1)C(Cc1nc(-c3ccncc3)no1)C2 (centres undefined)", "fold change (FC)": 0.047}
{"Compound": "C[N+]12CCC(CC1)C(Cc1nc(-c3ccco3)no1)C2 (centres undefined)", "fold change (FC)": 0.014}
{"Compound": "c1ccc(-c2noc(CC3CN4CCC3CC4)n2)cc1 (centres undefined)", "fold change (FC)": 0.602}

Now take the following compound into account.
// returns reported fold change (FC) for input Fc1cccc(-c2noc(CC3CN4CCC3CC4)n2)c1 (centres undefined)
0.458
